test system: Cultures of Dissociated Neonatal Rat Cerebellum; assay: Reversal of NMDA Induced Cell Death in cultures of dissociated neonatal rat cerebellum; format: cell-based; details: Rattus norvegicus; 0.005 μM + NMDA (1 mM, 3 hours); 24 hours; read-out: SURVIVING CELL IN CULTURE (relative to control, 100%)
Could you please mark 1 for values of viability at 0.005 µM below 60% and 0 for values at or above it?

Asked: Identify whether the compound N[C@@H]1C[C@@H](N)c2ccccc21 (relative stereo) [Compound 2716, trans 1,3-diaminoindan] records viability at 0.005 µM below 60%.
Given back: 0

Asked: Moving on to NCCCCN(CCCCN)[C@H]1CCc2ccccc21 [Compound 2727, (S)-N,N-di(4-amino-n-butyl)-1-aminoindan]
Given back: 1

Asked: Lookup NCCCCN(CCCN)C1CCc2ccccc21 (stereo not drawn) [Compound 2722]
Given back: 0

Asked: Entry to check: NCCCCN(CCCCN)C1CCc2ccccc21 (racemic) [Compound 2711]
Given back: 0

Asked: Another: NCCCNCCCCNCCCNC1CCc2ccccc21 (stereo not drawn) [Compound 2721]
Given back: 1

Asked: Same for NCCCCNCCCNC1CCc2ccccc21 (stereo not drawn) [Compound 2720]
Given back: 0

Asked: Repeat with N[C@@H]1C[C@H](N)c2ccccc21 [Compound 2715, cis 1,3-diaminoindan]
Given back: 1

Asked: Similarly, NCCCCN(CCCCN)C1CCCc2ccccc21 (stereo not drawn) [Compound 2728] ?
Given back: 1

Asked: Another compound: NCCCNCCCCNC1CCc2ccccc21 (stereo not drawn) [Compound 2724]
Given back: 0

* * *

Kindly state viability at 0.005 µM for each of the entries shown.
system: Cultures of Dissociated Neonatal Rat Cerebellum; experiment: Reversal of NMDA Induced Cell Death in cultures of dissociated neonatal rat cerebellum; type: cell-based; settings: Rattus norvegicus; 0.005 μM + NMDA (1 mM, 3 hours); 24 hours; read-out: SURVIVING CELL IN CULTURE (relative to control, 100%)
Write the number in % without appending the unit.

Asked: Find the recorded viability at 0.005 µM belonging to NCCCCN(CCCCN)[C@@H]1CCc2ccccc21 [Compound 2726, (R)-N,N-di(4-amino-n-butyl)-1-aminoindan] and report it.
Given back: 129

Asked: And the next one, NCCCCNCCCNCCCCNC1CCc2ccccc21 (stereo not drawn) ?
Given back: 72

Asked: NCCCNC1CCc2ccccc21 (stereo not drawn) ?
Given back: 26

* * *

tested on: pyramidal neurons throughout the CA1 layer of the anterior hippocampus; experiment: Global Brain Ischemia In Gerbils; type: in vivo, mongolian gerbils; settings: Meriones unguiculatus, Pyramidal neuron, ip, 336 h, read-out: PERCENT PROTECTION
VALUE KIND: responders at 1 mg/kg
Kindly format the answer as number then unit.

Asked: Bench note: what responders at 1 mg/kg did N[C@@H]1C[C@H](N)c2ccccc21 [Compound 2715, cis 1,3-diaminoindan] show?
Given back: 75%

Asked: Next compound up: N[C@H]1CCc2ccccc21 [(S)-1-aminoindan, reference compound]
Given back: 50%

Asked: Also N[C@@H]1CCc2ccccc21 [(R)-1-aminoindan, reference compound] ?
Given back: 25%

Asked: Would you mind doing NCCCCN(CCCCN)C1CCc2ccccc21 (racemic) as well?
Given back: 50%

Asked: Can you handle NCCCCN(CCCCN)C1CCCc2ccccc21 (centres unmarked) next?
Given back: 20%

The values you see were collected from patent US5646188A.
